Target: α4β2 nAChR (Rattus norvegicus, UniProt P09483+P12390)
Construct: expressed in transfected cells
Experiment: [3H]-epibatidine radioligand competition binding assay
Settings: competition against [3H]-epibatidine, stably transfected cell membranes; read-out: Ki α4β2
Experimental: Stably transfected cell lines, tissue culture conditions, membrane preparation procedures and binding assays were described previously. Briefly, cultured cells at >80% confluence were removed from their flasks (80 cm^2) with a disposable cell scraper and placed in 10 mL of 50 mM Tris.HCl buffer (pH 7.4, 4° C.). […] The filter-retained radioactivity was measured by liquid scintillation counting. […] Data from competition binding assays were analyzed using Prism 5 (GraphPad Software, San Diego, Calif.). […]
Rule for this label: class 1 means Ki is less than 0.06 nM; class 0 means Ki is at least 0.06 nM.

In [3]: df
Out[3]:
                       molecule  assignedlabel
0  CCCNCCOc1cncc(C#Cc2ccccc2)c1        class 0

Pending molecule:
Query: Is the reported Ki for C(#Cc1cncc(OC[C@H]2CCN2)c1)c1ccccc1 strictly below 0.06 nM?
Response: class 0

---

Target: human α4β2 nAChRs (Homo sapiens, UniProt P17787+P43681)
Construct: expressed in transfected cells
Experiment: 86Rb+ efflux assay in stably transfected cells
Type: cell-based
outcomeMeasure: pEC50
Answers are plain numbers, as −log10 of the molar value.

Query: pEC50; subject: C(#Cc1cncc(OC[C@@H]2CCN2)c1)c1ccccc1 [VMY-2-95]
Response: 8.07

---

Biological target: human α4β2 nAChRs (Homo sapiens, UniProt P17787+P43681)
Construct: expressed in transfected cells
Test: 86Rb+ efflux assay in stably transfected cells
Assay type: cell-based
Settings: 10 min pre-treatment before 100 μM (−)-nicotine; listed as Saz-A; read-out: IC50(10′) α4β2 (desensitization potency)
outcomeMeasure: IC50

Query: Lab note: need IC50 for OCCCCC#Cc1cncc(OC[C@@H]2CCN2)c1 [Sazetidine-A, reference compound] on human α4β2 nAChRs (Homo sapiens, UniProt P17787+P43681), anyone have it?
Response: 12 nM

---

Molecular target: human α4β2 nAChRs (Homo sapiens, UniProt P17787+P43681)
Construct: expressed in transfected cells
Assay: 86Rb+ efflux assay in stably transfected cells
Type: cell-based
Details: 10 min pre-treatment before 100 μM (−)-nicotine; read-out: IC50(10′) α4β2 (desensitization potency)
For each of the molecules below, state its IC50.
Give the number first and the unit second.

Count: 4. Required value per item: IC50.
1. Fc1ccccc1C#Cc1cncc(OC[C@@H]2CCN2)c1 [VMY-2-105]
2. OCCCCC#Cc1cncc(OC[C@@H]2CCN2)c1 [Sazetidine-A, reference compound]
3. C(#Cc1cncc(OCC2CCC2)c1)c1ccccc1 [VMY-2-161]
4. Fc1ccc(C#Cc2cncc(OC[C@@H]3CCN3)c2)cc1 [VMY-2-101]

Response:
20 nM
7.5 nM
35000 nM
8 nM

Query: Any idea what IC50 was measured for Fc1cccc(C#Cc2cncc(OC[C@@H]3CCN3)c2)c1 [VMY-2-109] ?
Response: 13 nM

---

Molecular target: α3β4 nAChR (Rattus norvegicus, UniProt P04757+P12392)
Construct: expressed in transfected cells; host or cells: HEK 293 (KXα3β4R2)
Experiment: [3H]-epibatidine radioligand competition binding assay
outcomeMeasure: Ki (nM)
Answers are plain numbers, in nM.

Query: Reported Ki for α3β4 nAChR (Rattus norvegicus, UniProt P04757+P12392), given Fc1cc(F)cc(C#Cc2cncc(OC[C@@H]3CCN3)c2)c1 [VMY-2-113] ?
Response: 1400

---

Target: α4β2 nAChR (Rattus norvegicus, UniProt P09483+P12390)
Construct: expressed in transfected cells
Experiment: [3H]-epibatidine radioligand competition binding assay
For each of the compounds below, state its log10(Ki).
Scale: log10; quantity: Ki; unit before log: nM

Please review the entries below; each comes with its answer.
>>> df
                                  molsmiles                        experimentalsystem  result
0       Fc1ccccc1C#Cc1cncc(OC[C@@H]2CCN2)c1  α4β2 nAChR (Rattus norvegicus, UniProt P09483+P12390)   -1.14
1  CN(C)c1cc(F)cc(C#Cc2cncc(OC[C@@H]3CCN3)c2)c1  α4β2 nAChR (Rattus norvegicus, UniProt P09483+P12390)   -1.51
2  Fc1cc(F)cc(C#Cc2cncc(OC[C@@H]3CCN3)c2)c1  α4β2 nAChR (Rattus norvegicus, UniProt P09483+P12390)   -1.30
3        CN1CC[C@H]1COc1cncc(C#Cc2ccccc2)c1  α4β2 nAChR (Rattus norvegicus, UniProt P09483+P12390)    0.08

Now look at this one.
Query: Form field: reported log10(Ki) of Fc1ccc(C#Cc2cncc(OC[C@@H]3CCN3)c2)cc1
Response: -1.08

---

Molecular target: α7 nAChR (Rattus norvegicus)
pKi: −log10 of the molar value.
Record criterion met whenever pKi is at 6 or higher; record criterion not met when lower.

Use the examples below as a reference point.
                                  molsmiles      assignedlabel
0  Cc1cc(F)cc(C#Cc2cncc(OC[C@@H]3CCN3)c2)c1      criterion met
1      C(#Cc1cncc(OC[C@@H]2CCN2)c1)c1ccccc1      criterion met
2  CN(C)c1cc(F)cc(C#Cc2cncc(OC[C@@H]3CCN3)c2)c1      criterion met
3     Cc1cccc(C#Cc2cncc(OC[C@@H]3CCN3)c2)c1      criterion met
4       C(#Cc1cncc(OC[C@H]2CCN2)c1)c1ccccc1  criterion not met
5  Fc1cc(F)cc(C#Cc2cncc(OC[C@@H]3CCN3)c2)c1  criterion not met

Please find the next molecule below.
Query: # check: pKi of CN1CC[C@H]1COc1cncc(C#Cc2ccccc2)c1 is greater than or equal to 6
Response: criterion not met

---

Target: α4β2 nAChR (Rattus norvegicus, UniProt P09483+P12390)
Construct: expressed in transfected cells
Assay: [3H]-epibatidine radioligand competition binding assay
pKi: −log10 of the molar value.
Note to self: values exactly at 10 are criterion met. So pKi at or above 10 is criterion met, below is criterion not met.

Look over these answered cases.
                                  molsmiles      assignedlabel
0  FC(F)(F)c1cccc(C#Cc2cncc(OC[C@@H]3CCN3)c2)c1  criterion not met
1     Cc1cccc(C#Cc2cncc(OC[C@@H]3CCN3)c2)c1      criterion met

Query: Form field: pKi at least 10? Entry: Cc1cc(F)cc(C#Cc2cncc(OC[C@@H]3CCN3)c2)c1
Response: criterion met

Query: Please indicate if the recorded pKi for Fc1cccc(C#Cc2cncc(OC[C@@H]3CCN3)c2)c1 meets or exceeds 10.
Response: criterion met

---

Biological target: human α4β2 nAChRs (Homo sapiens, UniProt P17787+P43681)
Construct: expressed in transfected cells
Assay: 86Rb+ efflux assay in stably transfected cells
Format: cell-based
Settings: 10 min pre-treatment before 100 μM (−)-nicotine; read-out: IC50(10′) α4β2 (desensitization potency)
outcomeMeasure: IC50 (nM)
Answers are plain numbers, in nM.

Solved cases below.
In [3]: df
Out[3]:
                            molsmiles  result
0        CCCNCCOc1cncc(C#Cc2ccccc2)c1   15000
1  CN1CC[C@H]1COc1cncc(C#Cc2ccccc2)c1     370

Now take the following compound into account.
Query: Reported IC50 for C(#Cc1cncc(OC[C@@H]2CCN2)c1)c1ccccc1 : what is it?
Response: 16

---

Molecular target: α4β2 nAChR (Rattus norvegicus, UniProt P09483+P12390)
Construct: expressed in transfected cells
Experiment: [3H]-epibatidine radioligand competition binding assay
Conditions: competition against [3H]-epibatidine, stably transfected cell membranes; read-out: Ki α4β2
outcomeMeasure: pKi
One number for each entry, as −log10 of the molar value.

Please supply pKi for each of the following items, keeping them in order.
1. OCCCCC#Cc1cncc(OC[C@@H]2CCN2)c1 [Sazetidine-A, reference compound]
2. C(#Cc1cncc(OC[C@@H]2CCN2)c1)c1ccccc1

Response:
1: 10.21; 2: 10.31

Query: Recorded pKi for C(#Cc1cncc(OCC2CCC2)c1)c1ccccc1 , please?
Response: 3.80

---

Target: α7 nAChR (Rattus norvegicus, UniProt Q05941)
Construct: expressed in transfected cells
Assay: [3H]-epibatidine radioligand competition binding assay
Settings: competition against [3H]-epibatidine
Can you tell me Ki for the items I'm about to list?
Answers are plain numbers, in nM.

In [3]: df
Out[3]:
                                   molecule  outcomemeasure  unitstring  result
0  COc1cc(F)cc(C#Cc2cncc(OC[C@@H]3CCN3)c2)c1 [VMY-2-139]              Ki          nM    1500
1  Fc1ccccc1C#Cc1cncc(OC[C@@H]2CCN2)c1 [VMY-2-105]              Ki          nM    1100

Note: attention shifts to another entry.
Query: Ki lookup needed for Fc1cccc(C#Cc2cncc(OC[C@@H]3CCN3)c2)c1 [VMY-2-109] , thanks.
Response: 720
